# System: HT-1080
# assay.name: Antiproliferative activity against human HT1080 cells after 48 hrs by SRB assay
# Assay type: functional
# test.settings: HT-1080, 48 h
measurement.label: GI50 (µM)

> print(dat)
                         mol.smiles  target.system  measurement.label  assay.result
1  c1ccc(-c2ccc3c(ccc4nccn43)n2)cc1        HT-1080               GI50          43.3

a. c1ccc2c(c1)CCc1cc3c(ccc4nccn43)nc1-2
b. c1ccc(-c2ccc3ccn4ccnc4c3n2)cc1
Field: lower recorded GI50 (choose a or b ) Reply briefly: the label of your chosen item.
a
(a: 32.7 µM, b: 57.7 µM)
